# experiment summary: Dissociation constant, pKa of compound
# Format: physicochemical
measurement kind: pKa

chemical structure | reading
Cc1onc(-c2ccccc2)c1-c1ccc(S(N)(=O)=O)cc1 | 9.8

* * *

# experiment summary: Selectivity index, ratio of IC50 for ovine COX-1 to IC50 for recombinant human COX-2
measurement kind: Ratio IC50

chemical structure | measurement kind | reading
CS(=O)(=O)c1ccc(-c2c(-c3ccc(F)cc3)noc2C(F)(F)F)cc1 | Ratio IC50 | > 12
CS(=O)(=O)c1ccc(-c2conc2-c2ccccc2)cc1 | Ratio IC50 | > 400
CS(=O)(=O)c1ccc(-c2conc2-c2ccc(F)cc2)cc1 | Ratio IC50 | > 1800
NS(=O)(=O)c1ccc(-c2cc(-c3ccccc3)no2)cc1 | Ratio IC50 | > 9.3
Cc1onc(-c2ccc(F)cc2)c1-c1ccc(S(N)(=O)=O)cc1 | Ratio IC50 | > 1400
NS(=O)(=O)c1ccc(-c2cc(-c3ccc(F)cc3)no2)cc1 | Ratio IC50 | > 1.2
C[Si](C)(C)c1onc(-c2ccccc2)c1-c1ccc(S(N)(=O)=O)cc1 | Ratio IC50 | > 770
NS(=O)(=O)c1ccc(-c2conc2-c2ccccc2)cc1 | Ratio IC50 | > 2100
C[Si](C)(C)c1onc(-c2ccccc2)c1-c1ccc(S(C)(=O)=O)cc1 | Ratio IC50 | 23.9
CS(=O)(=O)c1ccc(-c2cc(-c3ccccc3)no2)cc1 | Ratio IC50 | > 7.4
C[Si](C)(C)c1c(-c2ccccc2)noc1-c1ccc(S(N)(=O)=O)cc1 | Ratio IC50 | > 9
C[Si](C)(C)c1c(-c2ccc(F)cc2)noc1-c1ccc(S(N)(=O)=O)cc1 | Ratio IC50 | > 2.6
C[Si](C)(C)c1onc(-c2ccc(F)cc2)c1-c1ccc(S(N)(=O)=O)cc1 | Ratio IC50 | > 110
NS(=O)(=O)c1ccc(-c2conc2-c2ccc(F)cc2)cc1 | Ratio IC50 | > 2400
CS(=O)(=O)c1ccc(-c2c(-c3ccc(F)cc3)noc2Cl)cc1 | Ratio IC50 | 28.7
C[Si](C)(C)c1onc(-c2ccc(F)cc2)c1-c1ccc(S(C)(=O)=O)cc1 | Ratio IC50 | > 54
CS(=O)(=O)c1ccc(-c2c(-c3ccc(F)cc3)noc2C=O)cc1 | Ratio IC50 | > 7

* * *

# target or test system: Prostaglandin G/H synthase 2 (Homo sapiens, UniProt P35354)
# Sequence (P35354 whole entry): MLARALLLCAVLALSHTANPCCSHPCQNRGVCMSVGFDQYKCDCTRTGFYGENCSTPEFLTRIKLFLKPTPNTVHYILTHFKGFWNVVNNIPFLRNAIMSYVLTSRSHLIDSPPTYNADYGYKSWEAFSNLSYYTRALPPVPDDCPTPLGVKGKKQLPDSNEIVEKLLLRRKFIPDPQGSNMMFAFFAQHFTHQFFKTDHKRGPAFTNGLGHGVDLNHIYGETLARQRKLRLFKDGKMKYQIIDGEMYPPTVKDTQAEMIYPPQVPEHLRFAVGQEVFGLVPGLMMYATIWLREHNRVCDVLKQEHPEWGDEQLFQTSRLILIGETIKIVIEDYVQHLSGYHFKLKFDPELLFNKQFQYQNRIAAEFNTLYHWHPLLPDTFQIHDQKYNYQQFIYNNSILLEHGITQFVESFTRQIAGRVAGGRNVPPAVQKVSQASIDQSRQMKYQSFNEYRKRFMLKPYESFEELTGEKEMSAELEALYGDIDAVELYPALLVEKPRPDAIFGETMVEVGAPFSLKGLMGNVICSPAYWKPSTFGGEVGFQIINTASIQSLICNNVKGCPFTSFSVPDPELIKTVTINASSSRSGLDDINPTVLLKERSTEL
pIC50: −log10 of the molar value.
Reported pIC50 is given for each of the following compounds.
measurement kind: pIC50

chemical structure | target or test system | measurement kind | reading
C[Si](C)(C)c1onc(-c2ccc(F)cc2)c1-c1ccc(S(C)(=O)=O)cc1 | Prostaglandin G/H synthase 2 (Homo sapiens, UniProt P35354) | pIC50 | 5.73
NS(=O)(=O)c1ccc(-c2conc2-c2ccc(F)cc2)cc1 | Prostaglandin G/H synthase 2 (Homo sapiens, UniProt P35354) | pIC50 | 7.38
C[Si](C)(C)c1onc(-c2ccccc2)c1-c1ccc(S(C)(=O)=O)cc1 | Prostaglandin G/H synthase 2 (Homo sapiens, UniProt P35354) | pIC50 | 5.38
Cc1onc(-c2ccc(F)cc2)c1-c1ccc(S(N)(=O)=O)cc1 | Prostaglandin G/H synthase 2 (Homo sapiens, UniProt P35354) | pIC50 | 7.14
NS(=O)(=O)c1ccc(-c2cc(-c3ccc(F)cc3)no2)cc1 | Prostaglandin G/H synthase 2 (Homo sapiens, UniProt P35354) | pIC50 | 4.09

* * *

# experiment summary: Solubility of compound in normal saline
# Assay type: physicochemical

chemical structure | solubility / mM
Cc1onc(-c2ccccc2)c1-c1ccc(S(N)(=O)=O)cc1 | 10

* * *

Collected IC50 values appear next to each entry.
# target or test system: Prostaglandin G/H synthase 2 (Homo sapiens, UniProt P35354)
# Sequence (P35354 whole entry): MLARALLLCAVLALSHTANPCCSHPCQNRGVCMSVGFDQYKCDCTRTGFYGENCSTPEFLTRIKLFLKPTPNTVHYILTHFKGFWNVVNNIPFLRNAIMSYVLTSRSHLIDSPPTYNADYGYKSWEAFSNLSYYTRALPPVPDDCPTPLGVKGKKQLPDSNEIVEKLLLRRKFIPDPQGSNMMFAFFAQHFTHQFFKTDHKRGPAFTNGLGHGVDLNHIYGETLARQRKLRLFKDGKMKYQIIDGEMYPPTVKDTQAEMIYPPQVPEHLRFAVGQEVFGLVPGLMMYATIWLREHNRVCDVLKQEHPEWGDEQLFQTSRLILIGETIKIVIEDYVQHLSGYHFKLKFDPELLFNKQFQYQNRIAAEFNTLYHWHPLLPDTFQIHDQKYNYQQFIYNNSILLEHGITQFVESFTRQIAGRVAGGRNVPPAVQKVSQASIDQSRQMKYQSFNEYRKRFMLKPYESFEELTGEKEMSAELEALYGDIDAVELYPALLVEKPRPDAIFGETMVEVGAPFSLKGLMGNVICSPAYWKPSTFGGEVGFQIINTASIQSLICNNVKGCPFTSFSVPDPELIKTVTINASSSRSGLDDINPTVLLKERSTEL

chemical structure | comparison operator | IC50 (µM)
CS(=O)(=O)c1ccc(-c2c(-c3ccc(F)cc3)noc2C=O)cc1 | = | 13.8
NS(=O)(=O)c1ccc(-c2cc(-c3ccccc3)no2)cc1 | = | 10.8
C[Si](C)(C)c1c(-c2ccccc2)noc1-c1ccc(S(N)(=O)=O)cc1 | = | 11.1
C[Si](C)(C)c1onc(-c2ccccc2)c1-c1ccc(S(N)(=O)=O)cc1 | = | 0.13
CS(=O)(=O)c1ccc(-c2cc(-c3ccc(F)cc3)no2)cc1 | > | 100
